Below, each entry is listed with its recorded pIC50.
molecular target: PRMT5/MEP50 (Homo sapiens, UniProt O14744); construct: Flag-PRMT5; experiment: PRMT5 Biochemical Assay (PRMT5/MEP50 enzyme assay on peptide substrate, 3H-SAM Flashplate); conditions: PRMT5/MEP50 4 nM, 3H-SAM 75 nM, peptide 40 nM, 30 min preincubation at 25 degrees Celsius
Sequence (O14744 with tags, fused parts or gaps): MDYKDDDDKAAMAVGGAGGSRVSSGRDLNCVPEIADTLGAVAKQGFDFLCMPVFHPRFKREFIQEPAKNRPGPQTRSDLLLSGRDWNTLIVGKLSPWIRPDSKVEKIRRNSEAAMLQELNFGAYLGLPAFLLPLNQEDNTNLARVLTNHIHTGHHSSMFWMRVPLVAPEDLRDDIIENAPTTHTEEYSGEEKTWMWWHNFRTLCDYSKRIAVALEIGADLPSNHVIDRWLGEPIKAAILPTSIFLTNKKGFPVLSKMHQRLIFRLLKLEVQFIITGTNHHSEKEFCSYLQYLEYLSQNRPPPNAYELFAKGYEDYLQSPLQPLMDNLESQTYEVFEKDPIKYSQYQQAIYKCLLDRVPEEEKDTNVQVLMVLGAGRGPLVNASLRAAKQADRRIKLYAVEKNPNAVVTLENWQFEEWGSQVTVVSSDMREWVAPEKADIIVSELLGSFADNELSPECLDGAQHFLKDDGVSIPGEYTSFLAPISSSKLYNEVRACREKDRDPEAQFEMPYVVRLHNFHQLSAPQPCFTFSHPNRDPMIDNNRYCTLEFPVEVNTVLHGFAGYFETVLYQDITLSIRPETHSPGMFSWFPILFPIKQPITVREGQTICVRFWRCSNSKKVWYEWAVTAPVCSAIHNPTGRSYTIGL
Sequence (Q9BQA1 with tags, fused parts or gaps partner limits assumed): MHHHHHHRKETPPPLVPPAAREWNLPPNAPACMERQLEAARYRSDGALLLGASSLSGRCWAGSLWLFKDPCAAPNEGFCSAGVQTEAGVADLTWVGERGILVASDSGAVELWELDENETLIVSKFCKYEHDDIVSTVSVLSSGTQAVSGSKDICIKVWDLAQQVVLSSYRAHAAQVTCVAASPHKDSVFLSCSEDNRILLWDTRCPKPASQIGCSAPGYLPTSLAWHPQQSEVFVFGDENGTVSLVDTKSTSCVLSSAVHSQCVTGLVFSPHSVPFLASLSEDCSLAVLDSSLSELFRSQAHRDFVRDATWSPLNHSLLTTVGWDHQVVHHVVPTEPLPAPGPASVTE
pIC50: −log10 of the molar value.
quantity_kind: pIC50

{"mol_smiles": "CC(=O)N1CC(Nc2cc(C(=O)NC[C@H](O)CN3CCc4nc(C)sc4C3)ncn2)C1", "study_system": "PRMT5/MEP50 (Homo sapiens, UniProt O14744)", "quantity_kind": "pIC50", "value_reported": "5.00 to 6.00"}
{"mol_smiles": "CC(=O)N1CC(Nc2cc(C(=O)NC[C@H](O)CN3CCCc4c3cnn4C)ncn2)C1", "study_system": "PRMT5/MEP50 (Homo sapiens, UniProt O14744)", "quantity_kind": "pIC50", "value_reported": "< 5.00"}
{"mol_smiles": "CC(=O)N1CC(Nc2cc(C(=O)NC[C@H](O)CN3CCc4ccncc4C3)ncn2)C1", "study_system": "PRMT5/MEP50 (Homo sapiens, UniProt O14744)", "quantity_kind": "pIC50", "value_reported": "5.00 to 6.00"}
{"mol_smiles": "Cc1csc2c1CN(C[C@@H](O)CNC(=O)c1cc(NC3COC3)ncn1)CC2", "study_system": "PRMT5/MEP50 (Homo sapiens, UniProt O14744)", "quantity_kind": "pIC50", "value_reported": "6.00 to 7.00"}
{"mol_smiles": "CC(=O)N1CC(Nc2cc(C(=O)NC[C@H](O)CN3CCc4sc(C)c(C)c4C3)ncn2)C1", "study_system": "PRMT5/MEP50 (Homo sapiens, UniProt O14744)", "quantity_kind": "pIC50", "value_reported": "> 7.00"}
{"mol_smiles": "CC(=O)N1CCC(Nc2cc(C(=O)NC[C@H](O)CN3CCc4ncn(C)c4C3)ncn2)CC1", "study_system": "PRMT5/MEP50 (Homo sapiens, UniProt O14744)", "quantity_kind": "pIC50", "value_reported": "< 5.00"}
{"mol_smiles": "Cc1nc2c(s1)CN(C[C@@H](O)CNC(=O)c1cc(NC3COC3)ncn1)CC2", "study_system": "PRMT5/MEP50 (Homo sapiens, UniProt O14744)", "quantity_kind": "pIC50", "value_reported": "< 5.00"}
{"mol_smiles": "CC(=O)N1CCC(Nc2cc(C(=O)NC[C@H](O)CN3CCc4ccncc4C3)ccn2)CC1", "study_system": "PRMT5/MEP50 (Homo sapiens, UniProt O14744)", "quantity_kind": "pIC50", "value_reported": "6.00 to 7.00"}
